The measured values listed here are drawn from the supplement of paper PMC10567573.

B1: TRIM55 (parent)
chain: FQMEKIEHGYENMNHFTVNLNREE

variants of: B1; assay: protein stability index of a GFP-peptide fusion (GPS, HEK-293T) (PSI 1-6); higher = more stable; details: c terminus: a fixed tail appended;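 note: lentivirally expressed fusions sorted by FACS into six bins by GFP to DsRed ratio, PSI derived from sequencing read proportions per bin multiplied by bin number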

var | protein stability index
K5N | 3.54
N14A | 3.17
E24S | 2.06
Y10N | 3.27
E11I | 2.31
H15G | 3.72
M13T | 3.36
N21T | 2.65
Y10P | 3.63
M13K | 2.87
T17F | 1.74
E23P | 2.29
L20P | 2.88
N14C | 2.29
E4T | 2.13
N19G | 2.72
E7F | 1.44
M13Y | 2.38
E23Y | 2.23
E4A | 2.5
N21F | 2.07
E4N | 2.64
E7W | 2.65
E24N | 2.33
Q2L | 2.96
M3V | 2.8
E7C | 2.42
Q2F | 2.69
N19Q | 2.68
E4L | 2.43
T17V | 2.25
R22Y | 2.31
F1P | 4.65
Q2D | 4.1
Q2G | 3.7
L20S | 3.2
E11M | 1.98
Q2H | 2.28
F1E | 5.1
T17Y | 1.92
T17E | 4.27
F16N | 4.31
N19C | 2.65
E24R | 3.3
I6A | 3.27
E11R | 2.15
